Attribution: ChEMBL document CHEMBL1201862

Test: Luminescence Cell-Based Dose Retest to Confirm Inhibitors of Cancer Stem Cells. [Related pubchem assays (depositor defined):AID2717, AID2721]
Format: functional
Conditions: Homo sapiens
Activity calls are given as the source filed them.
The entries below come with measured AC50 values attached.
QUANTITY_KIND: AC50

compound=Cn1nc(-c2ccc(Cl)cc2)c2cc(C(=O)NCCCN3CCOCC3)sc21 measured_result="2.03 µM (active)"
compound=COc1ccc(-c2sc3cc4c(cc3c2C#CC2(O)CCCCC2)OCO4)cc1 measured_result="4.07 µM (active)"
compound=O=C(Nc1ccc(Cl)c(Cl)c1)Nc1ccccc1O measured_result="5.67 µM (active)"
compound="C=CCc1cc(Cl)ccc1OCCOCCNC(C)CC (stereo not given)" measured_result="21.5 µM (active)"
compound=CC1(C)CN(c2ccccc2)N(C(=O)c2ccc(F)cc2)C1=O measured_result="3.63 µM (active)"

* * *

Target: Serine/threonine-protein kinase TAO1 (Homo sapiens)
Sequence (Q7L7X3 whole entry): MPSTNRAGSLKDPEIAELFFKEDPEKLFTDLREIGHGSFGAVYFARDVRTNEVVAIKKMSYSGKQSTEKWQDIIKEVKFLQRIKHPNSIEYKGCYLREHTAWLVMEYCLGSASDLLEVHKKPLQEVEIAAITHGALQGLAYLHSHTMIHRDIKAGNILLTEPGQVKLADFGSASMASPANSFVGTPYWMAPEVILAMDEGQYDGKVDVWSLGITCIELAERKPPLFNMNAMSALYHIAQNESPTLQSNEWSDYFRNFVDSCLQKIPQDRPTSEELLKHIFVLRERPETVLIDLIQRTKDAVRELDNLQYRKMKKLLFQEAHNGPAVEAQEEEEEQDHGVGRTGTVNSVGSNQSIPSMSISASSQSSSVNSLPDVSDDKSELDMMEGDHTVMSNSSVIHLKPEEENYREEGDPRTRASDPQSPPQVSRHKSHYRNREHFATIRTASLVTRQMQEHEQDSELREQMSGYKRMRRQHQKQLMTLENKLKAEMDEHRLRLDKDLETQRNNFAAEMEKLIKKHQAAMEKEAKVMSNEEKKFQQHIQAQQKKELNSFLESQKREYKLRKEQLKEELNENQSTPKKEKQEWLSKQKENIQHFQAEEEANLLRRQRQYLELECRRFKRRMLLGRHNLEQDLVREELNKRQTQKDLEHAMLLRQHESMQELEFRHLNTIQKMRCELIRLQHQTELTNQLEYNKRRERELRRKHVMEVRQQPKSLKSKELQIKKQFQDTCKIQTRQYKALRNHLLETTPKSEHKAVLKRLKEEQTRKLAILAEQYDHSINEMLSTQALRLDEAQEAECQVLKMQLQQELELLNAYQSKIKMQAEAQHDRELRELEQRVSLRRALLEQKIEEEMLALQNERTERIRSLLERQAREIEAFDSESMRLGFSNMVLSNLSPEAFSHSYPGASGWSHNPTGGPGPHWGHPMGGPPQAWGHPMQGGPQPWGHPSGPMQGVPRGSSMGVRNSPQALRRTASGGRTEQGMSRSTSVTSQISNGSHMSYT
Type: functional
The source made the active and inactive calls.
Possible outcomes: true (1) for active, false (0) for inactive

compound="CC(C)CC(CO)NC(=O)c1cccc(-n2nc(C(C)(C)C)cc2NC(=O)Nc2cccc3ccccc23)c1 (centres undefined)" target_or_system="Serine/threonine-protein kinase TAO1 (Homo sapiens)" label_class="false (0)"
compound=CC(C)(O)c1cn(-c2ccc3[nH]ncc3c2)nn1 target_or_system="Serine/threonine-protein kinase TAO1 (Homo sapiens)" label_class="true (1)"
compound="NC1CCC(Nc2nccc(-c3c[nH]c4ncccc34)n2)CC1 (centres undefined)" target_or_system="Serine/threonine-protein kinase TAO1 (Homo sapiens)" label_class="true (1)"
compound=OCc1cc(-c2ccc3[nH]ncc3c2)on1 target_or_system="Serine/threonine-protein kinase TAO1 (Homo sapiens)" label_class="true (1)"

* * *

Target: Peroxisome proliferator-activated receptor gamma/Nuclear receptor coactivator 1 (Homo sapiens);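 also: agonist potency as compounds enhance coactivator SRC-1 recruitment to PPARgamma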
Sequence (P37231 whole entry): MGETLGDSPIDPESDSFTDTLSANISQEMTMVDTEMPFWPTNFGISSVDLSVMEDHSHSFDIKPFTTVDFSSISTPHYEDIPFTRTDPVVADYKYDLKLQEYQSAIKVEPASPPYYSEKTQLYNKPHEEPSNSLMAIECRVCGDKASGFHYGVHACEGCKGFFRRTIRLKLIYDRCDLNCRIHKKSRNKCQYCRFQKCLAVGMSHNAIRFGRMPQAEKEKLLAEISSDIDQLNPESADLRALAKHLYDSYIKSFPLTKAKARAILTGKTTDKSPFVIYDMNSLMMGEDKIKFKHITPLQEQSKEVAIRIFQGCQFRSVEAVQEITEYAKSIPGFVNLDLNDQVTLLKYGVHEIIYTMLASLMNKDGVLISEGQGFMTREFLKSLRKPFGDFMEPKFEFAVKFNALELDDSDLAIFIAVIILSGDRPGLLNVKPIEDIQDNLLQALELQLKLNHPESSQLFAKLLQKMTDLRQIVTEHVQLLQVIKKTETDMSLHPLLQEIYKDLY
Sequence (Q15788 whole entry, further chain): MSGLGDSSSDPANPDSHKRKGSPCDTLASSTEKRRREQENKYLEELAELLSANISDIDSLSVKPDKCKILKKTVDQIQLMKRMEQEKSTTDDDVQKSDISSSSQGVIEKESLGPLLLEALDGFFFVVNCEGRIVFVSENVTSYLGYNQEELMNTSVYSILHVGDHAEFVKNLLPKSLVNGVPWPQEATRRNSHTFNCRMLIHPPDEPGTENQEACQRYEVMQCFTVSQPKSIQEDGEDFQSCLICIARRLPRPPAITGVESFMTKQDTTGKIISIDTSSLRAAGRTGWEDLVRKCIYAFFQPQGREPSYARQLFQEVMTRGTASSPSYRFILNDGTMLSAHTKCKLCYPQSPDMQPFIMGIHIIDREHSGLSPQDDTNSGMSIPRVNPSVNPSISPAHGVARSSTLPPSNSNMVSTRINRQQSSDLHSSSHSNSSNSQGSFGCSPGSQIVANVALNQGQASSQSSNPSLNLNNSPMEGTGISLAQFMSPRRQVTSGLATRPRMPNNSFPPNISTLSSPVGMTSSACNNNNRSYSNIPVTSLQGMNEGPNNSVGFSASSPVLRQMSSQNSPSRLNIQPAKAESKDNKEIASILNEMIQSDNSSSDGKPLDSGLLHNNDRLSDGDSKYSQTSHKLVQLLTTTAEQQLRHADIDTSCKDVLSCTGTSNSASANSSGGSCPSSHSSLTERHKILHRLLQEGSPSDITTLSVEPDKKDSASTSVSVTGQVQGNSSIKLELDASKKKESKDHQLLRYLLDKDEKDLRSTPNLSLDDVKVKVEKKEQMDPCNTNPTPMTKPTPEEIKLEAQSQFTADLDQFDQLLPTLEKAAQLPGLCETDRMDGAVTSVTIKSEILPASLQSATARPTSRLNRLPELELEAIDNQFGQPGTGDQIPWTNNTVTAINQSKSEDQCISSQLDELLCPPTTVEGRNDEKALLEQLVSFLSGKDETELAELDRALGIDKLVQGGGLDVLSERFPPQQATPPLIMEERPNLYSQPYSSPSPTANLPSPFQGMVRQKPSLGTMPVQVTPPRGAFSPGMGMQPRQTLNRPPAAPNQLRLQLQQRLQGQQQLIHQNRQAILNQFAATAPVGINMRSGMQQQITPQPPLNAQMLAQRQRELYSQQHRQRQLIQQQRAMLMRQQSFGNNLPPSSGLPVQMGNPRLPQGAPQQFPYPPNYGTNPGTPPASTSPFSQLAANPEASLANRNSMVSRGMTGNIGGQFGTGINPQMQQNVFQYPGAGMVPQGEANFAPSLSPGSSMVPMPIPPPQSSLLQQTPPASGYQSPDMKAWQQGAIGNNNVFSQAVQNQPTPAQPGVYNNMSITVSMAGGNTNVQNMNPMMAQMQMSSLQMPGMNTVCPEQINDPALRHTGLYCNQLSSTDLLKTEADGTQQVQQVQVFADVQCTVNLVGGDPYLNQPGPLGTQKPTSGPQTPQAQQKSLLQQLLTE
Type: functional
QUANTITY_KIND: EC50

compound="Cc1ccccc1CC1(CO)CCCN(C(=O)CCC(=O)c2ccccc2)C1 (stereo not given)" quantity_kind=EC50 measured_result="> 79.4 µM (not active)"
compound=COc1cccc2sc(N3CCN(c4nc5ccccc5s4)CC3)nc12 quantity_kind=EC50 measured_result="13.4 µM (not active)"
compound=CCOC(=O)n1cc(-c2cnc(CNC(=O)C(C)(c3ccccc3)c3ccccc3)o2)c2ccccc21 quantity_kind=EC50 measured_result="> 79.4 µM (not active)"
compound=Cc1ccc(-n2c(C)cc(C(=O)COc3c(CO)cc(F)cc3CO)c2C)cc1C quantity_kind=EC50 measured_result="> 79.4 µM (not active)"
compound=COc1ccc(C2(CNC(=O)/C=C\c3ccco3)CCCC2)cc1OC quantity_kind=EC50 measured_result="> 79.4 µM (not active)"

* * *

Target: cAMP-dependent protein kinase catalytic subunit PRKX (Homo sapiens)
Sequence (P51817 whole entry): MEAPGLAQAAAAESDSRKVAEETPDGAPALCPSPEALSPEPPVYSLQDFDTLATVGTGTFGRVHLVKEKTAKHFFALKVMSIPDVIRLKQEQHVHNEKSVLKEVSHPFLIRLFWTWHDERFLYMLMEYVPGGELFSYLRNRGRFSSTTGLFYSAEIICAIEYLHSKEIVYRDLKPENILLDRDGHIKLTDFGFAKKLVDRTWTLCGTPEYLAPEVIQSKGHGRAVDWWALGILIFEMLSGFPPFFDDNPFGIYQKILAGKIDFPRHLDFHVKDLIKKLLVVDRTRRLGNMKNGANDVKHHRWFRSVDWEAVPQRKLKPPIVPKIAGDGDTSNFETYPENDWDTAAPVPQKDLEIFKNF
Type: functional
The source made the active and inactive calls.
Possible outcomes: y = active, n = inactive

molecule=CC(C)(O)c1cn(-c2ccc3[nH]ncc3c2)nn1 target_or_system="cAMP-dependent protein kinase catalytic subunit PRKX (Homo sapiens)" label_class=y
molecule=OCc1cc(-c2ccc3[nH]ncc3c2)on1 target_or_system="cAMP-dependent protein kinase catalytic subunit PRKX (Homo sapiens)" label_class=y
molecule="NC1CCC(Nc2nccc(-c3c[nH]c4ncccc34)n2)CC1 (centres undefined)" target_or_system="cAMP-dependent protein kinase catalytic subunit PRKX (Homo sapiens)" label_class=y
molecule="COC(C(=O)N1Cc2[nH]nc(NC(=O)c3ccc(N4CCN(C)CC4)cc3)c2C1)c1ccccc1 (centres undefined)" target_or_system="cAMP-dependent protein kinase catalytic subunit PRKX (Homo sapiens)" label_class=n

* * *

Endpoint: AC50. System: Cytochrome P450 2C9 (Homo sapiens). Items follow.
Sequence (P11712 whole entry): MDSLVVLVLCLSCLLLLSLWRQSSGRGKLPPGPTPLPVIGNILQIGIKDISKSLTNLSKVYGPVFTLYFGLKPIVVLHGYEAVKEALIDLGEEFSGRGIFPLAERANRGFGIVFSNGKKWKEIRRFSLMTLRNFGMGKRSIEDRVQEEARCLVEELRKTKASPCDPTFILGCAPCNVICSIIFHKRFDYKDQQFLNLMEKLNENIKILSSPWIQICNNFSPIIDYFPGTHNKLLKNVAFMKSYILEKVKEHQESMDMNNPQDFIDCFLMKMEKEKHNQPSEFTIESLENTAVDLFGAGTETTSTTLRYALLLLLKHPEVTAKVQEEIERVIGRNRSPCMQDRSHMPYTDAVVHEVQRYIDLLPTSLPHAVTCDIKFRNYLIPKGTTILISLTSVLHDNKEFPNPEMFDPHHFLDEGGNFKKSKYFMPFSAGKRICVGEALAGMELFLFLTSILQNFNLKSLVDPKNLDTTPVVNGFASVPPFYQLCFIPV
QUANTITY_KIND: AC50

substance_smiles=O=C(N/N=C/c1cccc(C(F)(F)F)c1)C1CCN(c2ncc(C(F)(F)F)cc2Cl)CC1 measured_result=inconclusive
substance_smiles=O=C(OCCCN1CCCCC1)c1ccc(O)cc1 measured_result=inconclusive
substance_smiles=Cn1cccc1C(=O)N1CCC2(CC1)CN(c1cccc(-c3ccccc3)c1)C2 measured_result=inconclusive

* * *

Target: UniProtKB Q9GZV3
Sequence (Q9GZV3 whole entry): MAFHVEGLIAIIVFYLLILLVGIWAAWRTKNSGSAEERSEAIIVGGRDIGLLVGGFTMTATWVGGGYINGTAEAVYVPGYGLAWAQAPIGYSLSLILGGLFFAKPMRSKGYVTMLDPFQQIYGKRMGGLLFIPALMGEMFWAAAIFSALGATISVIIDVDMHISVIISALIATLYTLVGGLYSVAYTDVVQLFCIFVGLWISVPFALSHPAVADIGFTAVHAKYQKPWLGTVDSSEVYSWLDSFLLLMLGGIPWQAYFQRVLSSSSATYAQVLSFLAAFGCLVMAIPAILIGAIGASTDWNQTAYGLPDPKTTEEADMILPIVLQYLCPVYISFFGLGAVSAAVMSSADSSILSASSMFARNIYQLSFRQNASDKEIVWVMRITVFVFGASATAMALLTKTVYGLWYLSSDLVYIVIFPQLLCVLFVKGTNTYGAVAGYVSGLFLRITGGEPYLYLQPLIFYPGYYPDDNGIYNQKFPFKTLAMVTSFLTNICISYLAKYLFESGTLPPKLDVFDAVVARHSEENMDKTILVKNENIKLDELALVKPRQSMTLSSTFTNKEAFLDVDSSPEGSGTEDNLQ
Assay: CHT inhibitors, dose response, cell-based, 5-point CRC, membrane potential dye (AID 504840)
Format: functional
Activity calls are given as the source filed them.
QUANTITY_KIND: IC50

molecule=Cc1nn(C)c(C)c1CN(C)S(=O)(=O)c1ccc2ccccc2c1 target_or_system="UniProtKB Q9GZV3" measured_result="12.6 µM (active)"
molecule=CN(CCC#N)c1ncnc2scc(-c3ccccc3)c12 target_or_system="UniProtKB Q9GZV3" measured_result="12.3 µM (active)"
molecule="CCC(NC(=O)CCc1nnc(-c2cc(C)on2)o1)C12CC3CC(CC(C3)C1)C2 (stereo not given)" target_or_system="UniProtKB Q9GZV3" measured_result="14.5 µM (active)"
molecule="COCC(C)N1CCC(Oc2cccc(C(=O)NCCc3ccccc3)c2)CC1 (stereo not given)" target_or_system="UniProtKB Q9GZV3" measured_result="7.46 µM (active)"
molecule="CCN1CCn2c3c(c4cc(Cl)ccc42)CCCC31 (stereo not given)" target_or_system="UniProtKB Q9GZV3" measured_result="3.31 µM (active)"
molecule=O=C(NNc1cc(Cl)cc(Cl)c1)c1cccs1 target_or_system="UniProtKB Q9GZV3" measured_result="16.2 µM (active)"
molecule=CC(C)NC[C@H](O)c1ccc(O)c(O)c1 target_or_system="UniProtKB Q9GZV3" measured_result="4.17e-05 µM (inconclusive)"
molecule=CC(C)(C)CC(C)(C)N=C(S)Nc1ccc2nc(-c3ccccn3)c(-c3ccccn3)nc2c1 target_or_system="UniProtKB Q9GZV3" measured_result="26.3 µM (active)"
molecule=Cc1ccc(NC(=O)c2ccccc2NS(=O)(=O)c2ccc(Cl)s2)cc1S(=O)(=O)N1CCOCC1 target_or_system="UniProtKB Q9GZV3" measured_result="9.12 µM (active)"
molecule="CCN1CCn2c3c(c4cccc(C)c42)CCCC31 (stereo not given)" target_or_system="UniProtKB Q9GZV3" measured_result="14.5 µM (active)"

* * *

Test system: H4
Assay: Luminescence Cell-Based Dose Response HTS to Identify Activators of 5'UTR Stem-Loop Driven Prion Protein mRNA Translation in H4 Neuroglioblastoma Cells. [Related pubchem assays: 1829 (Project Summary), 1814 (Primary HTS)]
Format: functional
Conditions: Homo sapiens
Active and inactive are the calls of the source.
QUANTITY_KIND: EC50

substance_smiles=COc1ccc(NC(=O)C#Cc2ccccc2)cc1 measured_result="22.1 µM (active)"
substance_smiles=CCOC(=O)N1CCN(/C=C(\C#N)c2nc3ccccc3s2)CC1 measured_result="37.5 µM (active)"
substance_smiles=O=C(/C=C/c1ccco1)NCCc1ccccc1 measured_result="> 120 µM (not active)"
